Target: EphA3(h) (Homo sapiens, UniProt P29320)
Construct: purchased Upstate Biotechnology (Dundee, UK), KinaseProfiler service
Sequence (P29320 21-983): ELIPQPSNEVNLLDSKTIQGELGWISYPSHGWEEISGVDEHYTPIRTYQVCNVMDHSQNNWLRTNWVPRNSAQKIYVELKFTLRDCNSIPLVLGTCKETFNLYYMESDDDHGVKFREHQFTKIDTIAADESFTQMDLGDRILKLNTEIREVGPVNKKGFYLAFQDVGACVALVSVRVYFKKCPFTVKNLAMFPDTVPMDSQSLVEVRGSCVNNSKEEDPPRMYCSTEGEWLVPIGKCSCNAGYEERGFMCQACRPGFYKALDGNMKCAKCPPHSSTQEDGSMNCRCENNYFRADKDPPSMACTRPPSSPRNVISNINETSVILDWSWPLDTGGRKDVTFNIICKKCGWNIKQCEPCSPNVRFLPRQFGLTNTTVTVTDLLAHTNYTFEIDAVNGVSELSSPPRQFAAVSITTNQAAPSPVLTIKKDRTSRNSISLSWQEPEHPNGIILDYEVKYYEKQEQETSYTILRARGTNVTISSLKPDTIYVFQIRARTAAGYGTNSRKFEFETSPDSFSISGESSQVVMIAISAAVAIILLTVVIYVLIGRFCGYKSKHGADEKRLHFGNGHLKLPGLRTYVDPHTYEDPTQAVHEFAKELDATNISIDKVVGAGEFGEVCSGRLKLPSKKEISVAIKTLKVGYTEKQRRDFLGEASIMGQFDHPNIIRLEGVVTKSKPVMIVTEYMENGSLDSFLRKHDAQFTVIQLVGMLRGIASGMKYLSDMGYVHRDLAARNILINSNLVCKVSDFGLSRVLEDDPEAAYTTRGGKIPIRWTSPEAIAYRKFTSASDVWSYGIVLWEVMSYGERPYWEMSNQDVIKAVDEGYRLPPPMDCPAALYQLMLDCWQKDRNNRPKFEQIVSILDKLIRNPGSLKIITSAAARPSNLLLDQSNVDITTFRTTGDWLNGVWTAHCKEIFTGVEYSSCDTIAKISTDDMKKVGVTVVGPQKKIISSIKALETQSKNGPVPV
Assay: KinaseProfiler assay (Upstate), EphA3
Assay type: biochemical
Details: 0.1 μM
measurement_name: inhibition at 0.1 µM (%)
State the answer as a number, implicitly in %.

Answered examples (3):
Tested system EphA3(h) (Homo sapiens, UniProt P29320); inhibition at 0.1 µM recorded for Cc1cccc(C(=O)Nc2cccc([C@H](C)Nc3cncc(-n4ccnc4)n3)c2)c1 was 0

Tested system EphA3(h) (Homo sapiens, UniProt P29320); inhibition at 0.1 µM recorded for Cc1cccc(C(=O)Nc2ccc(C)c([C@H](C)Nc3cncc(Cl)n3)c2)c1 was 69

Tested system EphA3(h) (Homo sapiens, UniProt P29320); inhibition at 0.1 µM recorded for Cc1cccc(C(=O)Nc2cccc([C@H](C)Nc3cncc(-c4cccc(N5CCOCC5)c4)n3)c2)c1 was 44

Note: attention shifts to another entry.
Tested system EphA3(h) (Homo sapiens, UniProt P29320); inhibition at 0.1 µM recorded for Cc1cccc(C(=O)Nc2cccc([C@H](C)Nc3cncc(-c4ccc(S(N)(=O)=O)cc4)n3)c2)c1 was 17

---

Molecular target: EphA2(h) (Homo sapiens, UniProt P29317)
Construct: purchased Upstate Biotechnology (Dundee, UK), KinaseProfiler service
Sequence (P29317 24-976): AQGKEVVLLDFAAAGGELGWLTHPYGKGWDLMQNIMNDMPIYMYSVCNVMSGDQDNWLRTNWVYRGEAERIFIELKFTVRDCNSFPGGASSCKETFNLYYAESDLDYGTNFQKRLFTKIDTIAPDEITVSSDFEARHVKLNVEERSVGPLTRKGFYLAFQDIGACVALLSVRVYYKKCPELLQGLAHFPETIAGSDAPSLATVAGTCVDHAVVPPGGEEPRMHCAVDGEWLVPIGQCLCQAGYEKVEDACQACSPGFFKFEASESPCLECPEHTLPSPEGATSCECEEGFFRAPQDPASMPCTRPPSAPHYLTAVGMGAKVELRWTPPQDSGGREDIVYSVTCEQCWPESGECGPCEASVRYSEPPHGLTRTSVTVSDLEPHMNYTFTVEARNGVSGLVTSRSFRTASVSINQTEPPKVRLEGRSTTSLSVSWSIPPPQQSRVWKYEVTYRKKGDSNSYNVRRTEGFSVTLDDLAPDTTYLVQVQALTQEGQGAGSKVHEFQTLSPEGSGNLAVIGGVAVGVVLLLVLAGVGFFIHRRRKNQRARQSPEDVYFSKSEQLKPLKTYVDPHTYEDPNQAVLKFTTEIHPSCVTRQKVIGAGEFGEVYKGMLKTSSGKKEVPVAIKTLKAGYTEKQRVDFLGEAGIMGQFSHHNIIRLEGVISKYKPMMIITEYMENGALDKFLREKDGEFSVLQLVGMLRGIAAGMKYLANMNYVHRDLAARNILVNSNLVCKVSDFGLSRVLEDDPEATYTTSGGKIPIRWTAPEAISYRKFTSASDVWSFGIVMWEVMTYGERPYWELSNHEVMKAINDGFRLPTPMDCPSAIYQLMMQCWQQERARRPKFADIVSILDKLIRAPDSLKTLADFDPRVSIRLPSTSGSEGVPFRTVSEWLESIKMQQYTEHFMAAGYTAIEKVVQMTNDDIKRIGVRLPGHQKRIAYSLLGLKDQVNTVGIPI
Test: KinaseProfiler assay (Upstate), EphA2
Format: biochemical
Conditions: 0.1 μM
Form field: inhibition at 0.1 µM (one value per entry).

For record C[C@H](Nc1cncc(Cl)n1)c1cccc(NC(=O)c2cccc(C(F)(F)F)c2)c1 the listed inhibition at 0.1 µM is 96%

More entries:
For record C[C@H](Nc1cncc(-c2ccc(N3CCN(C)CC3)cc2)n1)c1cccc(NC(=O)c2cccc(C(F)(F)F)c2)c1 the listed inhibition at 0.1 µM is 93%

For record Cc1cccc(C(=O)Nc2cccc([C@H](C)Nc3cncc(-c4cccc(N5CCOCC5)c4)n3)c2)c1 the listed inhibition at 0.1 µM is 97%

For record C[C@H](Nc1cncc(-c2cccc(N3CCOCC3)c2)n1)c1cccc(NC(=O)c2cccc(C(F)(F)F)c2)c1 the listed inhibition at 0.1 µM is 96%
